For each entry below, report its cytotoxicity at 70.5 h value.
Experiment: Human HepG2 cell viability assay in 384 well format
Assay type: toxicity, cell-based
Parameters: dose 125 nL, time 70.5 hour; concentration not given beside the values
Conditions: HepG2 cells, read-out: Inhibition
One number for each entry, in %.

For each of the items listed, what is its cytotoxicity at 70.5 h?
1. CCOCCC1(CNC(=O)c2ccsc2)CCC1
2. O=C1NC(c2cnc(C3CCC3)s2)Nc2ncccc21 (stereo unspecified)
3. CCC[C@H]1CN(Cc2cc(C#N)n(C)c2C)C[C@@H]1N(C)C
4. CCN1CCCC(O)(CNCc2ccc3c(c2)OCO3)C1 (stereo unspecified)

stdout:
[-5.98, -26.5, -7.07, -10.3]

Please state, for each entry, its recorded cytotoxicity at 70.5 h.
1. Cc1ccccc1C1(CNC(=O)NC(C)c2nncn2C)CC1 (stereo unspecified)
2. Cc1cc(NC(=O)NC(C)CO)ccc1OCC(F)(F)F (stereo unspecified)
3. Cn1cc(CN2CCC3(CCCCN3S(C)(=O)=O)CC2)cn1
4. CCC(C)(C)NC(=O)c1nnn(-c2cccc3c2CCN(C)C3)c1C

stdout:
[-2.77, -2.25, -11.7, 9.39]

Can you give me cytotoxicity at 70.5 h for all of these, one by one?
1. O=C(C1CCCC1)N1CCN(Cc2nc(-c3ccco3)no2)CC1
2. c1cncc(N2CCO[C@H]3CN(CC4CCOC4)C[C@H]32)c1 (stereo partly specified)
3. Cc1cccc(CN2C[C@@H]3OCCN(CC(=O)N(C)C)[C@@H]3C2)c1

stdout:
[-9.97, -3.42, -8.16]

---

Test: Human HepG2 cell viability assay in 384 well format
Type: toxicity, cell-based
Set-up: dose 125 nL, time 70.5 hour; concentration not given beside the values
Settings: HepG2 cells, read-out: Inhibition
For each of the compounds below, state its cytotoxicity at 70.5 h.
One number for each entry, in %.

stdin: Item under review: CC(C#N)NS(=O)(=O)c1ccc2c(c1)N(C)CCC2 (stereo not drawn) . Reported cytotoxicity at 70.5 h?
stdout: -0.913

# batch: return cytotoxicity at 70.5 h for each of the 3 compounds below
1. O=C(CCO)N1CC2(CCN(c3ccccc3)C2)C1
2. CC(C)N1CCCC(CNC(=O)c2ccnc(-n3ccnc3)c2)C1 (stereo not drawn)
3. CC(C)CCN1C(=O)C2(NC(=O)c3ccccc3O2)c2ccccc21 (stereo not drawn)

stdout:
1. -1.72
2. -4.35
3. -15.1

Count: 3. Required value per item: cytotoxicity at 70.5 h.
1. CCc1ccccc1NC(=O)N1CCn2cnc(COC)c2C1
2. CC(CNC(=O)N1CCN(c2cnccn2)CC1)Cc1cccs1 (stereo not drawn)
3. O=C(c1ccc(=O)[nH]n1)N1CCCC1C1CCCC1 (stereo not drawn)

stdout:
[-7.61, -4.18, -0.243]

---

Assay: Human HepG2 cell viability assay in 384 well format
Type: toxicity, cell-based
Parameters: dose 125 nL, time 70.5 hour; concentration not given beside the values
Conditions: HepG2 cells, read-out: Inhibition
MEASURED PROPERTY: cytotoxicity at 70.5 h (%)
Numbers only, in %.

stdin: State the recorded cytotoxicity at 70.5 h for this entry: CSCCC(O)C(=O)N(C)Cc1cnn(-c2ccc(F)cc2)c1 (stereo unspecified)
stdout: -3.28

Go through the items and report each one's cytotoxicity at 70.5 h.
1. CN(CCO)C[C@@H]1CN(Cc2ccccc2C#N)C[C@@H]1CO
2. Cc1occc1C(=O)N1CCCN(Cc2nccn2C(C)C)CC1
3. NC(=O)c1ccc(N2CCCCC2)c(NC(=O)c2ccc(F)cc2Cl)c1
4. CCn1c(C2CCN(C(=O)c3cc(C4CC4)on3)CC2)nn(C)c1=O
5. Cc1cc(SCC(=O)O)nc2nn(CC(F)F)c(C)c12
6. Cc1c(-c2cc(-c3cnn(C)c3C)n(CC(=O)NC3CC3)n2)cnn1C
7. COc1cccc(C(O)CN2CCN(C(=O)c3ccsc3)CC2)c1 (stereo unspecified)

stdout:
-3.5
20.3
3.11
-6.56
-1.44
19.6
-5.91

Fill in cytotoxicity at 70.5 h for each of the 3 compounds listed.
1. CC(C)(C)n1ncc2c1NC(=O)CC2c1ccc(C(=O)O)cc1 (stereo unspecified)
2. Cc1nnc(CCNC(=O)c2coc(CN3CCOCC3)c2)s1
3. CS(=O)(=O)N[C@@H]1CCO[C@]2(CCN(C(=O)C3=CCCC3)C2)C1

stdout:
1. -13.3
2. 1.37
3. -10
